System: DU-145
Method Notes: Cytotoxicity against human DU-145 cells assessed as reduction in cell viability by […]
Assay type: functional, cell-based
Assay Readout: pIC50
Kindly note that pIC50 refers to -log10 of the concentration in mol/L and answer with the value alone.

# count of solved cases: 5
COc1ccc2cc([C@H](C)c3nnc(SCc4ccc(C)cc4)n3-c3ccc(Cl)cc3)ccc2c1 4.73
COc1ccc(CSc2nnc([C@@H](C)c3ccc4cc(OC)ccc4c3)n2-c2ccc(Cl)cc2)cc1 4.14
COc1ccc2cc([C@H](C)c3nnc(SCc4ccc(Cl)cc4)n3-c3ccc(Cl)cc3)ccc2c1 3.96
COc1ccc2cc([C@H](C)c3nnc(SCc4c(Cl)cccc4Cl)n3-c3ccc(F)cc3)ccc2c1 4.91
COc1cccc(CSc2nnc([C@@H](C)c3ccc4cc(OC)ccc4c3)n2-c2ccc(F)cc2)c1 4.72

[Q] Entry "COc1ccc2cc([C@H](C)c3nnc(SCc4c(C)cc(C)cc4C)n3-c3cccc(Cl)c3)ccc2c1" : reported pIC50 = ?
[A] 4.03

[Q] Entry "COc1ccc2cc([C@H](C)c3nnc(SCc4c(C)cc(C)cc4C)n3-c3ccc(F)cc3)ccc2c1" : reported pIC50 = ?
[A] 4.99
